Parameter TGI: see the listing below.
System: SR leukemia
Experiment: NCI tumour cell line growth inhibition, 48 h

Compound	Endpoint	Assay value
O=c1cc(N=Nc2ccc(Cl)cc2)[nH]c(=O)[nH]1	TGI	2.67 µM
CC12CCC(C(Nc3ccccn3)C1=O)C2(C)C (stereo unspecified)	TGI	> 100 µM
O=c1c2cccnc2ncn1CCN1CCCC1	TGI	> 100 µM
CCOC(=O)C(O)(NC(=O)NC(O)(C(=O)OCC)C(F)(F)F)C(F)(F)F (stereo unspecified)	TGI	> 100 µM
CN1CCN(c2ccc(C(=O)Nc3cc(-c4cccc(NS(=O)(=O)c5ccccc5)c4)[nH]n3)cc2)CC1	TGI	5.33 µM

Now, please, on to the next compound.
Ask: I have this compound here, "c1ccc(C2=NCCc3cc4c(cc32)OCO4)cc1" , and I need its recorded TGI.
Result: > 100 µM

* * *

Test system: UO-31 renal
Assay: NCI tumour cell line growth inhibition, 48 h
Endpoint: GI50

Ask: I have this molecule here, "Cn1c(=O)c(Oc2ccccc2)cc2cnc(NC3CCOCC3)nc21" , and I need its recorded GI50.
Result: > 25 µM

* * *

Tested on: T-47D breast
Test: NCI tumour cell line growth inhibition, 48 h; in the data active = GI50 below about 0.43 µM; inactive = the rest
I would appreciate it if you answered using one of these outcomes: Yes (active), No (inactive)

Compound	Assigned label
COc1ccc2c(c1)C1(C(=O)N2)C(C#N)=C(c2ccccc2)Nc2c1c(-c1ccccc1)nn2-c1ccccc1 (centres undefined)	No
O=C1CS/C(=N\S(=O)(=O)c2ccc(N3N=C4c5ccccc5CC4C3c3ccc(Cl)cc3)cc2)N1c1ccccc1 (centres undefined)	No
CN(C)CCCn1c2nc(=O)[nH]c(=O)c-2nc2cc(Cl)c(Cl)cc21	No
NC(=O)c1ccc2nc3c(n2c1)C(=O)C(=O)c1ccccc1-3	Yes
CCOC(=O)c1cc(C(=O)c2cc(OC)c(OC)c(OC)c2)n2ccccc12	No
CC(=O)OC1Oc2ccccc2-c2oc(=O)c(-c3cc4ccccc4oc3=O)cc21 (centres undefined)	No
C[C@H](N)C(=O)N1C[C@H](CCCB(O)O)[C@](N)(C(=O)O)C1	No
O=C1CCS/C(=N\S(=O)(=O)c2ccc(N3N=C4c5ccccc5CC4C3c3cccs3)cc2)N1C(=O)c1ccccc1 (centres undefined)	No

Next item in the queue.
Ask: Which result was noted for this compound in the test: "O=C1NN(c2ccccc2)C(=O)/C1=C/c1ccc(Br)o1"
Result: No

* * *

Parameter TGI: see the listing below.
System: NCI-H23 lung
Assay: NCI tumour cell line growth inhibition, 48 h
The response must be a number in µM with no trailing unit.

Compound	TGI (µM)
N#Cc1ccc(Oc2nc3ccc(C(F)(F)F)cc3nc2-c2ccccc2)cc1	32

Ask: I have this compound here, "Clc1ncc(Cl)c(Cl)n1" , and I need its recorded TGI.
Result: 42.3

Ask: Now this one: "Oc1ccc(C#CCOc2ccccc2)cc1CNCCN(Cc1ccccn1)Cc1ccccn1"
Result: 5.51

Ask: Now this one: "CN1CCN(c2ccc(C(=O)Nc3cc(-c4cccc(NS(=O)(=O)c5ccccc5)c4)[nH]n3)cc2)CC1"
Result: 35.2

Ask: Now this one: "COc1ccccc1NC(=O)O/N=C(/Cl)C(C)C"
Result: 28.8

Ask: Now this one: "C1COCCOCCOCCOCCO1.CC(=O)[CH-]C(C)=O.CC(=O)[CH-]C(C)=O.CC(=O)[CH-]C(C)=O.[V]"
Result: 31.6

Ask: Now this one: COc1cc(C2c3cc4c(cc3[C@@H](Nc3cccc([N+](=O)[O-])c3)C3COC(=O)[C@H]23)OCO4)cc(OC)c1O (some centres undefined)
Result: 4.65

* * *

Test system: RXF 393 renal
Assay: NCI tumour cell line growth inhibition, 48 h
Endpoint: TGI

Molecule	TGI
C=CC1=C(C)C2=NC1=CC1=NC(=CC3=C(C)C4=C(O)C(C(=O)OC)C(=C5NC(=C2)C(C)C5CCC(=O)OC)C4=N3)C(CC)=C1C (centres undefined)	> 100 µM
Cc1nnc(-n2c(O)cc(=O)n(-c3ccccc3)c2=S)nc1/C=C/c1ccc(N(C)C)cc1	> 58.5 µM
CCN(CC)C(=O)N1CN(c2ccccc2)C2(CCN(CCCSc3ccc(F)cc3)CC2)C1=O	29.7 µM

Now, please, on to the next molecule.
Ask: I have this molecule here, "CC[C@@]12C=CC(=S)N(CCSc3ccccc3)[C@@H]1c1c(n(S(=O)(=O)c3ccc(OC)cc3)c3ccccc13)CC2" , and I need its recorded TGI.
Result: > 100 µM

* * *

Tested on: UACC-62 melanoma
Assay: NCI tumour cell line growth inhibition, 48 h; in the data active means GI50 below about 0.43 µM; inactive means the rest
*1 amine or outer side, *2 acyl side, *3 side chain or, on linkers, in order; H or OH if unused. Where a SMILES comes first, the peptide text is derived from it. [ ]: non-standard residue; d: D form. ξ: configuration not given here. X21 = CC[C@@H](C)C(N[*:1])C(=O)[*:2]; ξR = N=C(N)NCCCC(N)C(=O)O; ξI = CCC(C)C(N)C(=O)O; ξL = CC(C)CC(N)C(=O)O; ξK = NCCCCC(N)C(=O)O; ξV = CC(C)C(N)C(=O)O; ξA = CC(N)C(=O)O
I would appreciate it if you answered using one of these outcomes: y for active, n for inactive

Ask: Which result was noted for this molecule in the test: "C=C1C(=O)O[C@H]2[C@H]1CC/C(Cn1cc(-c3cc(C)c(C)cc3C)nn1)=C\CC[C@@]1(C)O[C@@H]21"
Result: n

Ask: Now this one: "CC(C)Nc1ncc2cc(Oc3ccc(F)cc3F)c(=O)n(C)c2n1"
Result: n

Ask: Now this one: "Cc1ccc(Sc2sc(-c3ccccc3)nc2[P+](c2ccccc2)(c2ccccc2)c2ccccc2)cc1"
Result: y

Ask: Now this one: CCC(C)C1NC(=O)C(CC(C)C)NC(=O)C(C)NC(=O)C(C(C)C)NC(=O)C(CCCCN)NC(=O)C(CC(C)C)NC(=O)C(C(C)C)NC(=O)[C@H](C)NC(=O)C(C(C)CC)NC(=O)C(CCCN=C(N)N)NC(=O)C(CCCCN)NC(=O)C(CCCN=C(N)N)NC(=O)C(CCCCN)NC(=O)C([C@H](C)CC)NC(=O)C(CCCCN)NC1=O (stereo partly specified) (cyclo(A[ξV][ξL][ξK][ξV][ξA][ξL][ξI][ξK][X21][ξK][ξR][ξK][ξR][ξI]))
Result: n

Ask: Now this one: CC(=O)OC1Oc2ccccc2-c2oc(=O)c(-c3cc4ccccc4oc3=O)cc21 (stereo unspecified)
Result: n

Ask: Now this one: "CCOC(=O)c1cc(C(=O)c2cc(OC)c(OC)c(OC)c2)n2ccccc12"
Result: y

* * *

Test system: HL-60(TB) leukemia
Test: NCI tumour cell line growth inhibition, 48 h
Endpoint: GI50

// below: answered compounds
Mol	Endpoint	Assay value
CCCN(CCSSCCNc1nc(N(C)O)nc(N(C)O)n1)c1nc(N(C)O)nc(N(C)O)n1	GI50	3.31 µM
COc1cc(/C=C2\C(=O)Nc3cccc(Cl)c32)cc(OC)c1OC	GI50	11 µM
COc1cc(OC)c(C(=O)/C=C/c2cccc(OC(C)=O)c2)cc1CC=C(C)C	GI50	13.3 µM

Ask: I have this compound here, "C1COCCOCCOCCOCCO1.CC(=O)[CH-]C(C)=O.CC(=O)[CH-]C(C)=O.CC(=O)[CH-]C(C)=O.[V]" , and I need its recorded GI50.
Result: 20.1 µM

* * *

System: MALME-3M melanoma
Experiment: NCI tumour cell line growth inhibition, 48 h; in the data active = GI50 below about 0.43 µM; inactive = the rest
*1 amine or outer side, *2 acyl side, *3 side chain or, on linkers, in order; H or OH if unused. Where a SMILES comes first, the peptide text is derived from it. [ ]: non-standard residue; d: D form. ξ: configuration not given here. X21 = CC[C@@H](C)C(N[*:1])C(=O)[*:2]; ξR = N=C(N)NCCCC(N)C(=O)O; ξI = CCC(C)C(N)C(=O)O; ξL = CC(C)CC(N)C(=O)O; ξK = NCCCCC(N)C(=O)O; ξV = CC(C)C(N)C(=O)O; ξA = CC(N)C(=O)O
I would appreciate it if you answered using one of these outcomes: active, inactive

Past entries and their recorded results:
Compound	Assigned label
NC1=Nc2cc(OCCCN3Cc4ccccc4C3)c(OCC3CC3)cc2C12CCCC2	inactive
COc1ccc(N(/C=C/C(=O)C(F)(F)F)CC(=O)c2ccc(Cl)c(Cl)c2)cc1	inactive
CCC(C)C1NC(=O)C(CC(C)C)NC(=O)C(C)NC(=O)C(C(C)C)NC(=O)C(CCCCN)NC(=O)C(CC(C)C)NC(=O)C(C(C)C)NC(=O)[C@H](C)NC(=O)C(C(C)CC)NC(=O)C(CCCN=C(N)N)NC(=O)C(CCCCN)NC(=O)C(CCCN=C(N)N)NC(=O)C(CCCCN)NC(=O)C([C@H](C)CC)NC(=O)C(CCCCN)NC1=O (some centres not stated) (cyclo(A[ξV][ξL][ξK][ξV][ξA][ξL][ξI][ξK][X21][ξK][ξR][ξK][ξR][ξI]))	inactive
Cc1[nH]nc2c1N=C(c1ccccc1Cl)c1cc([N+](=O)[O-])ccc1N2	inactive
C=C1C(=O)O[C@H]2[C@H]1CC/C(Cn1cc(-c3cc(C)c(C)cc3C)nn1)=C\CC[C@@]1(C)O[C@@H]21	inactive
Cc1ccc(Sc2sc(-c3ccccc3)nc2[P+](c2ccccc2)(c2ccccc2)c2ccccc2)cc1	active

Next item in the queue.
Ask: Which result was noted for this compound in the test: "COc1cc(/C=C2\C(=O)Nc3cccc(Cl)c32)cc(OC)c1OC"
Result: inactive
